Biological target: T1, P8
T1 chain: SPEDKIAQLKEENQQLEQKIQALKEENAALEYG
Assay: two-hybrid library CC1;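 further: natural log of median RNA to DNA barcode read ratio; higher means stronger binding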
Conditions: mean of both orientations
The reader will find reported interaction score values listed item by item below.

{"columns": ["BINDER", "interaction score"],
 "data": [
  ["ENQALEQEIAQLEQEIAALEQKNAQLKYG [P11]", -2.59],
  ["KNERLKEEIQRLEQENQQLEEKISQLKYGC [P6SC2]", -1.84],
  ["SPEDENAALEEKIAQLKQKNAALKEEIQALEYG [P5]", -1.39],
  ["EIQQLEEEISQLEQKNSQLKEKNQQLKYG [P3mS]", -2.54],
  ["SPEDKNAALKEEIQALEEENQALEEKIAQLKYG [P6]", -2.37],
  ["KNSQLKEEIQQLEEENQQLEEKIRQLKYGC [P6SC1]", -2.12],
  ["ENSQLEEKISQLKQKNSRLKEEIARLEYGC [P5SC1]", -0.893]
]}

The origin of these recorded values is paper PMC10397247.
